test: Pharmacokinetics in rat after intravenous administration 1 mg/kg; assay type: in vivo, Male Sprague Dawley Rat; conditions: male, Sprague Dawley, rat, plasma, iv, 1 mg/kg; read-out: #AUC(0-8)
ASSAY READOUT: AUC(0-t) (ng·h/mL)
Give the value in ng·h/mL but do not write ng·h/mL after it.

query: Return AUC(0-t) for the following compound: CC(C)c1onc(-c2c(Cl)cccc2Cl)c1COc1ccc(/C=C/c2cccc(C(=O)O)c2)c(Cl)c1 [GW4064, reference compound]
result: 268

query: Fill in reported AUC(0-t) for this entry: O=C(O)c1cccc(C2CC2c2ccc(OCc3c(-c4c(Cl)cccc4Cl)noc3C3CC3)cc2Cl)c1 (racemic)
result: 850

query: Answer with the recorded AUC(0-t) for the compound listed here: O=C(O)c1ccc(C2CC2c2ccc(OCc3c(-c4c(Cl)cccc4Cl)noc3C3CC3)cc2Cl)cc1 (racemic)
result: 399

----------
assay: Pharmacokinetics in monkeys after oral administration 12 mg/kg; assay type: in vivo, Cynomolgus monkeys (Macacca mulatta); conditions: Cynomolgus, cynomolgus monkey, plasma, oral 12 mg/kg, Avg
ASSAY READOUT: half-life (h)
Value expressed in h; do not type the unit.

query: Using known records, supply half-life for O=C(O)c1cccc(C2CC2c2ccc(OCc3c(-c4c(Cl)cccc4Cl)noc3C3CC3)cc2Cl)c1 (racemic) [Example 4]
result: 2.92

query: Name the recorded half-life of the item O=C(O)c1ccc(C2CC2c2ccc(OCc3c(-c4c(Cl)cccc4Cl)noc3C3CC3)cc2Cl)cc1 (racemic) [Example 12] in your answer.
result: 4.54

----------
Target: FXR ligand binding domain (Homo sapiens)
Sequence (Q96RI1 187-472 isoform Q96RI1-2): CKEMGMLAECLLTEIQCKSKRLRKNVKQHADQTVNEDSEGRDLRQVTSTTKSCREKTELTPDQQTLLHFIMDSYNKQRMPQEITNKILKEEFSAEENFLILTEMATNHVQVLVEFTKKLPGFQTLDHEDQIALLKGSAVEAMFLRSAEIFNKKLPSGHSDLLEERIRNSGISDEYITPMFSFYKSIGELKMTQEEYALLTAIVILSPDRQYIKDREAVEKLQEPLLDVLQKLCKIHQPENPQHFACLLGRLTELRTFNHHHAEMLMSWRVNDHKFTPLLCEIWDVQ
Assay: Mammalian One Hybrid (M1H) Gal4 reporter assay in HEK293 cells
Conditions: potency range
Experimental: Determination of a ligand mediated Gal4 promoter driven transactivation to quantify ligand binding mediated activation of FXR was performed as follows: The cDNA part encoding the FXR ligand binding domain was cloned into vector pCMV-BD (Stratagene) as a fusion to the yeast GAL4 DNA binding domain under the control of the CMV promoter. The amino acid boundaries of the ligand binding domain were amino acids 187-472 of Database entry NM_005123 (RefSeq). […]
pEC50: −log10 of the molar value.
ASSAY READOUT: pEC50

query: Return pEC50 for the following molecule: CS(=O)(=O)NC(=O)c1ccc(C2CC2c2ccc(OCc3c(-c4c(Cl)cccc4Cl)noc3C3CC3)cc2Cl)cc1 (centres unmarked)
result: 7.00 to 8.00

query: Indicate its recorded pEC50; the molecule in question is CC(C)c1onc(-c2c(Cl)cccc2Cl)c1COc1ccc(C2CC2c2cccc(C(=O)O)c2)c(Cl)c1 (centres unmarked)
result: 7.00 to 8.00

query: For the molecule O=C(O)c1cccc(C2CC2c2ccc(OCc3c(-c4c(Cl)cccc4Cl)noc3C3CC3)cc2Cl)c1 (racemic) [Example 4] , give its measured pEC50 value.
result: 7.00 to 8.00

query: Identify measured pEC50 associated with Cn1nc(C(=O)O)c2ccc(C3CC3c3ccc(OCc4c(-c5c(Cl)cccc5Cl)noc4C4CC4)cc3Cl)cc21 (racemic) [Example 13]
result: 7.00 to 8.00

query: Report pEC50, nothing else, for this molecule: O=C(NCCS(=O)(=O)O)c1ccc(C2CC2c2ccc(OCc3c(-c4c(Cl)cccc4Cl)noc3C3CC3)cc2Cl)cc1 (centres unmarked)
result: < 7.00

query: Give pEC50 for the following molecule: Cc1cc(C2CC2c2ccc(OCc3c(-c4c(Cl)cccc4Cl)noc3C3CC3)cc2Cl)cc(C)c1C(=O)O (centres unmarked)
result: > 8.00

query: Supply reported pEC50 belonging to this molecule: O=C(O)c1ccc(C2CC2c2ccc(OCc3c(-c4c(Cl)cccc4Cl)noc3C3CC3)cc2Cl)cn1 (centres unmarked)
result: 7.00 to 8.00

query: Answer with the recorded pEC50 of O=C(O)c1ccc(C2CC2c2ccc(OCc3c(-c4c(Cl)cccc4Cl)noc3C3CC3)cc2Cl)cc1 (single isomer, unassigned; (+)) [Example 12b] only.
result: < 7.00

----------
assay: Pharmacokinetics in rat after intravenous administration 1 mg/kg; type: in vivo, Male Sprague Dawley Rat; conditions: male, Sprague Dawley, plasma, iv; rat, 1 mg/kg i.v.
ASSAY READOUT: Tmax (min)
# unit: min | format: bare number

query: Give me measured Tmax, please, for this compound: O=C(O)c1cccc(C2CC2c2ccc(OCc3c(-c4c(Cl)cccc4Cl)noc3C3CC3)cc2Cl)c1 (racemic) [Example 4]
result: 4.98

query: Return the recorded Tmax value; entry: CC(C)c1onc(-c2c(Cl)cccc2Cl)c1COc1ccc(/C=C/c2cccc(C(=O)O)c2)c(Cl)c1 [GW4064, reference compound]
result: 4.98

query: For the compound O=C(O)c1ccc(C2CC2c2ccc(OCc3c(-c4c(Cl)cccc4Cl)noc3C3CC3)cc2Cl)cc1 (racemic) [Example 12] , report Tmax.
result: 4.98

----------
experiment: Pharmacokinetics in monkeys after oral administration 12 mg/kg; type: in vivo, Cynomolgus monkeys (Macacca mulatta); conditions: Cynomolgus, cynomolgus monkey, plasma, oral 12 mg/kg, Avg, read-out: MRT0-t (converted)
I'd appreciate it if you could supply MRT last values for the items below.
Numeric answer only, unit h assumed.

query: Return MRT last (reported value) for this compound: O=C(O)c1cccc(C2CC2c2ccc(OCc3c(-c4c(Cl)cccc4Cl)noc3C3CC3)cc2Cl)c1 (racemic) [Example 4]
result: 4.31

query: Quickly give me recorded MRT last for O=C(O)c1ccc(C2CC2c2ccc(OCc3c(-c4c(Cl)cccc4Cl)noc3C3CC3)cc2Cl)cc1 (racemic) [Example 12]
result: 6.11

----------
target: human FXR alpha ligand binding domain (Homo sapiens, UniProt Q96RI1); construct: made in house; host or cells: E. coli BL21(DE3), vector pDEST15; experiment: FRET activity assay (ligand mediated cofactor peptide interaction, LANCE); type: biochemical; settings: potency range
So I've got a bunch of molecules here, and I need their EC50 values.

query: Given the molecule O=C(O)c1ccc(C2CC2c2ccc(OCc3c(-c4c(Cl)cccc4Cl)noc3C3CC3)cc2Cl)cc1 (single isomer, unassigned; (+)) [Example 12b] , write its reported EC50.
result: > 100 nM

query: Assign EC50 to the following record: CS(=O)(=O)NC(=O)c1ccc(C2CC2c2ccc(OCc3c(-c4c(Cl)cccc4Cl)noc3C3CC3)cc2Cl)cc1 (stereo not drawn) [Example 14]
result: > 100 nM

query: Read the entry O=C(O)c1ccc(C2CC2c2ccc(OCc3c(-c4ccccc4OC(F)(F)F)noc3C3CC3)cc2Cl)cc1 (stereo not drawn) [Example 24] and write its reported EC50.
result: > 100 nM

----------
assay: Pharmacokinetics in monkeys after oral administration 12 mg/kg; type: in vivo, Cynomolgus monkeys (Macacca mulatta); conditions: Cynomolgus, cynomolgus monkey, plasma, oral 12 mg/kg, Avg
ASSAY READOUT: AUC(0-inf) (µg·h/mL)
Just the number in µg·h/mL, nothing appended.

query: Give a short answer stating reported AUC(0-inf) for O=C(O)c1ccc(C2CC2c2ccc(OCc3c(-c4c(Cl)cccc4Cl)noc3C3CC3)cc2Cl)cc1 (racemic) [Example 12] .
result: 15.1

query: Quick one: give measured AUC(0-inf) for O=C(O)c1cccc(C2CC2c2ccc(OCc3c(-c4c(Cl)cccc4Cl)noc3C3CC3)cc2Cl)c1 (racemic) [Example 4]
result: 30.7

----------
Would you mind telling me the reported AUC(0-t) of each entry?
assay: Pharmacokinetics in monkeys after oral administration 12 mg/kg; type: in vivo, Cynomolgus monkeys (Macacca mulatta); details: Cynomolgus, cynomolgus monkey, plasma, oral 12 mg/kg, Avg
Answer format: numeric, ng·h/mL implied, no suffix.

query: Provide measured AUC(0-t) value, entry: O=C(O)c1cccc(C2CC2c2ccc(OCc3c(-c4c(Cl)cccc4Cl)noc3C3CC3)cc2Cl)c1 (racemic)
result: 30500

query: Answer with the recorded AUC(0-t) for the compound listed here: O=C(O)c1ccc(C2CC2c2ccc(OCc3c(-c4c(Cl)cccc4Cl)noc3C3CC3)cc2Cl)cc1 (racemic)
result: 14500

----------
assay: Pharmacokinetics in rat after intravenous administration 1 mg/kg; format: in vivo, Male Sprague Dawley Rat; details: male, Sprague Dawley, plasma, iv; rat, 1 mg/kg i.v., 0.083 hr
ASSAY READOUT: concentration at 0.083 hr (ng/mL)
Reply with just the number (in ng/mL).

query: Respond only with concentration at 0.083 hr recorded for CC(C)c1onc(-c2c(Cl)cccc2Cl)c1COc1ccc(/C=C/c2cccc(C(=O)O)c2)c(Cl)c1 [GW4064, reference compound]
result: 405

query: Please report concentration at 0.083 hr for the following compound: O=C(O)c1ccc(C2CC2c2ccc(OCc3c(-c4c(Cl)cccc4Cl)noc3C3CC3)cc2Cl)cc1 (racemic) [Example 12]
result: 661

query: // fetch concentration at 0.083 hr given entry O=C(O)c1cccc(C2CC2c2ccc(OCc3c(-c4c(Cl)cccc4Cl)noc3C3CC3)cc2Cl)c1 (racemic) [Example 4]
result: 1190
